system: MATIN; assay: Pre-emergence herbicidal action against MATIN; format: in vivo, Matricaria inodora; conditions: dosage 80 g/ha
# Pre-emergence action against MATIN in % per record follows
QUANTITY_KIND: Pre-emergence action against MATIN in % (%)

{"MOLECULE": "Cn1nnnc1NC(=O)c1ccc(C(F)(F)F)c(C(=O)NCC(F)F)c1Cl [Example 1-134]", "QUANTITY_KIND": "Pre-emergence action against MATIN in %", "MEASURED": 100}
{"MOLECULE": "CCn1nnnc1NC(=O)c1ccc(C(F)(F)F)c(C(=O)NCCSC)c1C [Example 2-35]", "QUANTITY_KIND": "Pre-emergence action against MATIN in %", "MEASURED": 80}
{"MOLECULE": "CCn1nnnc1NC(=O)c1ccc(Br)c(C(=O)NC(C)C)c1Cl [Example 2-185]", "QUANTITY_KIND": "Pre-emergence action against MATIN in %", "MEASURED": 100}
{"MOLECULE": "CCNC(=O)c1c(C(F)F)ccc(C(=O)Nc2nnc(C)o2)c1OC [Example 6-50]", "QUANTITY_KIND": "Pre-emergence action against MATIN in %", "MEASURED": 80}
{"MOLECULE": "CC(NC(=O)c1c(Br)ccc(C(=O)Nc2nnnn2C)c1Cl)C1CC1 (stereo not drawn) [Example 1-183]", "QUANTITY_KIND": "Pre-emergence action against MATIN in %", "MEASURED": 100}
{"MOLECULE": "Cc1nnc(NC(=O)c2ccc(Br)c(C(=O)NCC(F)(F)F)c2Cl)o1 [Example 6-144]", "QUANTITY_KIND": "Pre-emergence action against MATIN in %", "MEASURED": 80}
{"MOLECULE": "Cc1nnc(NC(=O)c2ccc(C(F)F)c(C(=O)NC3CC3)c2Cl)o1 [Example 6-124]", "QUANTITY_KIND": "Pre-emergence action against MATIN in %", "MEASURED": 100}
{"MOLECULE": "CCn1nnnc1NC(=O)c1ccc(C(F)F)c(C(=O)NC)c1C [Example 2-44]", "QUANTITY_KIND": "Pre-emergence action against MATIN in %", "MEASURED": 100}
{"MOLECULE": "CCCn1nnnc1NC(=O)c1ccc(C(F)(F)F)c(C(=O)NC2CC2)c1C [Example 3-27]", "QUANTITY_KIND": "Pre-emergence action against MATIN in %", "MEASURED": 100}
{"MOLECULE": "CC(NC(=O)c1c(C(F)(F)F)ccc(C(=O)Nc2nnnn2C)c1Cl)C1CC1 (stereo not drawn) [Example 1-135]", "QUANTITY_KIND": "Pre-emergence action against MATIN in %", "MEASURED": 100}
{"MOLECULE": "CCn1nnnc1NC(=O)c1ccc(Br)c(C(=O)NCCOC)c1Cl [Example 2-186]", "QUANTITY_KIND": "Pre-emergence action against MATIN in %", "MEASURED": 100}
{"MOLECULE": "CSc1c(C(=O)Nc2nnnn2C)ccc(C(F)F)c1C(=O)NC(C)C1CC1 (stereo not drawn) [Example 1-353]", "QUANTITY_KIND": "Pre-emergence action against MATIN in %", "MEASURED": 100}
{"MOLECULE": "Cc1c(C(=O)Nc2nnnn2C)ccc(C(F)(F)F)c1C(=O)NCC1CC1 [Example 1-28]", "QUANTITY_KIND": "Pre-emergence action against MATIN in %", "MEASURED": 100}
{"MOLECULE": "CCCNC(=O)c1c(C(F)F)ccc(C(=O)Nc2nnnn2CC)c1Cl [Example 2-154]", "QUANTITY_KIND": "Pre-emergence action against MATIN in %", "MEASURED": 100}
{"MOLECULE": "CCn1nnnc1NC(=O)c1ccc(C(F)F)c(C(=O)NC)c1SC [Example 2-87]", "QUANTITY_KIND": "Pre-emergence action against MATIN in %", "MEASURED": 90}
{"MOLECULE": "CCn1nnnc1NC(=O)c1ccc(C(F)F)c(C(=O)Nc2ccccc2)c1Cl [Example 2-161]", "QUANTITY_KIND": "Pre-emergence action against MATIN in %", "MEASURED": 90}
{"MOLECULE": "CCn1nnnc1NC(=O)c1ccc(C(F)(F)F)c(C(=O)NC(C)C2CC2)c1SC (stereo not drawn) [Example 2-350]", "QUANTITY_KIND": "Pre-emergence action against MATIN in %", "MEASURED": 100}
{"MOLECULE": "CCNC(=O)c1c(C(F)(F)F)ccc(C(=O)Nc2nnco2)c1SC [Example 5-59]", "QUANTITY_KIND": "Pre-emergence action against MATIN in %", "MEASURED": 90}
{"MOLECULE": "CCNC(=O)c1c(C(F)F)ccc(C(=O)Nc2nnco2)c1SC [Example 5-75]", "QUANTITY_KIND": "Pre-emergence action against MATIN in %", "MEASURED": 100}
{"MOLECULE": "Cc1nnc(NC(=O)c2ccc(C(F)F)c(C(=O)NCC(F)(F)F)c2Br)o1 [Example 6-168]", "QUANTITY_KIND": "Pre-emergence action against MATIN in %", "MEASURED": 90}
{"MOLECULE": "CCn1nnnc1NC(=O)c1ccc(C(F)F)c(C(=O)NCC2CC2)c1Br [Example 2-228]", "QUANTITY_KIND": "Pre-emergence action against MATIN in %", "MEASURED": 100}
{"MOLECULE": "CCn1nnnc1NC(=O)c1ccc(C(F)(F)F)c(C(=O)NCC#N)c1C [Example 2-36]", "QUANTITY_KIND": "Pre-emergence action against MATIN in %", "MEASURED": 90}
{"MOLECULE": "CCn1nnnc1NC(=O)c1ccc(C(F)(F)F)c(C(=O)NCC(F)F)c1Cl [Example 2-134]", "QUANTITY_KIND": "Pre-emergence action against MATIN in %", "MEASURED": 100}
{"MOLECULE": "CCNC(=O)c1c(C(F)(F)F)ccc(C(=O)Nc2nnnn2CC)c1CC [Example 2-272]", "QUANTITY_KIND": "Pre-emergence action against MATIN in %", "MEASURED": 100}
{"MOLECULE": "CCNC(=O)c1c(C(F)(F)F)ccc(C(=O)Nc2nnc(C)o2)c1OC [Example 6-44]", "QUANTITY_KIND": "Pre-emergence action against MATIN in %", "MEASURED": 80}
{"MOLECULE": "CCNC(=O)c1c(C(F)(F)F)ccc(C(=O)Nc2nnc(C)o2)c1C [Example 6-26]", "QUANTITY_KIND": "Pre-emergence action against MATIN in %", "MEASURED": 90}
{"MOLECULE": "Cc1nnc(NC(=O)c2ccc(C(F)(F)F)c(C(=O)NCC3CC3)c2Br)o1 [Example 6-161]", "QUANTITY_KIND": "Pre-emergence action against MATIN in %", "MEASURED": 100}
{"MOLECULE": "CCCn1nnnc1NC(=O)c1ccc(S(C)(=O)=O)c(C(=O)NC2CC2)c1Cl [Example 3-125]", "QUANTITY_KIND": "Pre-emergence action against MATIN in %", "MEASURED": 100}
{"MOLECULE": "Cc1nnc(NC(=O)c2ccc(C(F)F)c(C(=O)NC3CC3)c2C)o1 [Example 6-33]", "QUANTITY_KIND": "Pre-emergence action against MATIN in %", "MEASURED": 90}
{"MOLECULE": "CCn1nnnc1NC(=O)c1ccc(C(F)(F)F)c(C(=O)NCc2cccs2)c1Cl [Example 2-144]", "QUANTITY_KIND": "Pre-emergence action against MATIN in %", "MEASURED": 90}
{"MOLECULE": "CSc1c(C(=O)Nc2nnc(C)o2)ccc(C(F)(F)F)c1C(=O)NC1CC1 [Example 6-60]", "QUANTITY_KIND": "Pre-emergence action against MATIN in %", "MEASURED": 90}
{"MOLECULE": "CCc1c(C(=O)Nc2nnnn2CC)ccc(C(F)(F)F)c1C(=O)NC1CC1 [Example 2-273]", "QUANTITY_KIND": "Pre-emergence action against MATIN in %", "MEASURED": 100}
{"MOLECULE": "CCn1nnnc1NC(=O)c1ccc(C(F)(F)F)c(C(=O)NCC(F)F)c1C1CC1 [Example 2-291]", "QUANTITY_KIND": "Pre-emergence action against MATIN in %", "MEASURED": 100}
